Test system: Klebsiella pneumoniae
Assay: Antimicrobial activity against Klebsiella pneumoniae isolate H-1406 expressing VIM-1 and KPC-2 genes by microdilution method
Assay type: functional
outcome.measure: MIC

Examples from the recorded data:
C[C@@H](O)[C@H]1C(=O)N2C(C(=O)O)=C(S[C@@H]3CN[C@H](C(=O)Nc4cccc(C(=O)O)c4)C3)[C@H](C)[C@H]12; 64 µg/mL
C[C@@H](O)[C@H]1C(=O)N2C(C(=O)O)=C(SCCNC=N)C[C@H]12 [IMIPENEM ANHYDROUS]; 32 µg/mL

Please look at the following molecule next.
Q: Find the measured MIC of CC(C)(O/N=C(\C(=O)N[C@@H]1C(=O)N2C(C(=O)[O-])=C(C[n+]3ccccc3)CS[C@H]12)c1csc(N)n1)C(=O)O and report it.
A: > 256 µg/mL
